Field: Hydrophobicity. Provide a value for each of the substances that follow.
Protocol Summary: Hydrophobicity as % TFA/AcN solvent at HPLC elution time
Assay type: physicochemical
Test Conditions: chromatographic; expressed as % TFA/AcN solvent at HPLC elution time

// Hydrophobicity value for KLGFENFLVKALKTVMHVPTSPLLa [CPF-St6, predicted S. tropicalis skin peptide encoded by cpf-St6] : 35,5 % TFA/AcN solvent

// Hydrophobicity value for pQGLMGTLISKQMKKa [levitide-St1, levitide-related peptide encoded by xpf-St4] : 31,6 % TFA/AcN solvent

// Hydrophobicity value for pQGLIGTLTAKQIKKa [levitide-St2, levitide-related peptide encoded by xpf-St5] : 35,0 % TFA/AcN solvent

// Hydrophobicity value for GMATKAGTVLGKVTKAIIGAALa [PGLa-St3, predicted S. tropicalis skin peptide encoded by pgla-St3] : 39,2 % TFA/AcN solvent

// Hydrophobicity value for FIGALLGPLLNLLKa [PFQa-St1, homologue of pFQa encoded by xpf-St7] : 55,4 % TFA/AcN solvent
